# System Name: DRB1*0802 (Homo sapiens, UniProt P01903+P01911, A100R/A103L/A169T/F76Y/H45Y/I96F/K41T/L162R/M171V/P40S/Q125H/Q178H/Q39Y/Q99D/R218S/R42G/S66Y/V115G/W38E)
# Method: biochemical
# Format: binding
pIC50: −log10 of the molar value.
Measurement Name: pIC50

Molecule	Reported Result
CSCC[C@H](NC(=O)[C@H](CCC(=O)O)NC(=O)[C@H](CCC(N)=O)NC(=O)[C@@H]1CCCN1)C(=O)N[C@@H](CCCCN)C(=O)N[C@H](C(=O)N[C@@H](Cc1ccc(O)cc1)C(=O)N[C@@H](CO)C(=O)N[C@H](C(=O)N[C@@H](CO)C(=O)N[C@@H](Cc1ccccc1)C(=O)N[C@@H](CC(=O)O)C(=O)N[C@@H](CO)C(=O)N[C@@H](CC(C)C)C(=O)N[C@@H](Cc1ccccc1)C(=O)O)C(C)C)[C@@H](C)O [Peptide 68.0127]	< 4.70

Kindly consider the entry below.
Input line: Given the entry CC[C@H](C)[C@H](NC(=O)[C@@H](N)CC(C)C)C(=O)N[C@@H](CCSC)C(=O)N[C@@H](Cc1ccc(O)cc1)C(=O)N[C@@H](CO)C(=O)N[C@@H](C)C(=O)N[C@@H](Cc1c[nH]cn1)C(=O)N[C@@H](CC(=O)O)C(=O)N[C@H](C(=O)N[C@H](C(=O)N[C@H](C(=O)N[C@@H](CO)C(=O)NCC(=O)N[C@@H](CC(C)C)C(=O)N[C@@H](CCC(N)=O)C(=O)O)C(C)C)[C@@H](C)O)[C@@H](C)O [Peptide 68.0050] , report its measured pIC50.
Output line: < 4.70

====

# System Name: HLA-A11 (A*1101) (Homo sapiens, UniProt P04439, A114D/D185E/E176A/F33Y/L180Q/S129P/T187R)
# Method: biochemical
# Format: binding
pIC50: −log10 of the molar value. No end group written: not given here.
pIC50 below 8 gives class 0; pIC50 at or above it gives class 1.

                      seq_string  assigned_class
0   GQVNCKGIYY [Peptide 88.0209]         class 0
1  VTVYDGVPVWR [Peptide 1525.08]         class 0
2    GLGISYGRK [Peptide 1577.25]         class 0
3    KGLGISYGR [Peptide 1577.30]         class 0
4    SVYGTTLEK [Peptide 78.0282]         class 1
5    CFYSPALNK [Peptide 1556.43]         class 0

Input line: Please tell me: is the sequence VLILALLRYK [Peptide 88.0144] at or over 8 in terms of pIC50?
Output line: class 0

Input line: Another sequence to look at: ITVYYGVPVWR [Peptide 1525.06]
Output line: class 0

Input line: Next entry: CTELKLVYR [Peptide 78.0334]
Output line: class 0

Input line: Param item: SVAALYWYR [Peptide 88.0341]
Output line: class 1

Input line: What do you get for SSLARRHMAR [Peptide 9017.0193] ?
Output line: class 0

====

# System Name: DRB1*0802 (Homo sapiens, UniProt P01903+P01911, A100R/A103L/A169T/F76Y/H45Y/I96F/K41T/L162R/M171V/P40S/Q125H/Q178H/Q39Y/Q99D/R218S/R42G/S66Y/V115G/W38E)
# Method: biochemical
# Assay type: binding
No end group written: not given here.
Measurement Name: pIC50
Please note pIC50 is a logarithmic value: minus log10 of concentration in mol/L. Answer with that number alone.

>>> print(df.to_string())
                          seq_string  reported_result
0  PMCMMIEPPKLRSTA [Peptide 90.0034]             5.36
1  RNTFLDVVTIPNSVQ [Peptide 1601.39]             6.11
2  HKAIELQMALKGLAQ [Peptide 90.0004]             7.42
3  FKYFKEDAAKYSKTQ [Peptide 90.0206]             6.08
4  LLQLKCPPILLTSNI [Peptide 89.0091]             5.14
5  QMFLGTVKIPPTVQI [Peptide 89.0188]             6.30
6  TPEWIQRLTIIQHGI [Peptide 89.0030]             6.43
7  SEVYDFVFADLRIVY [Peptide 1543.48]             5.39
8  QKCFKKKGITVTVQY [Peptide 90.0026]             5.88
9  GKSYFGMSLIQFLKG [Peptide 89.0075]             5.81

Input line: Recorded pIC50 of IIHLKGDANILKCLR [Peptide 90.0197] , please.
Output line: 5.52

Input line: Another sequence to look at: QQQMFLGTVKIPPTV [Peptide 89.0187]
Output line: 5.14

Input line: Then what about the sequence IIHLKGDPNSLKCLR [Peptide 90.0228] ?
Output line: 6.06
